Hey, just so you know, these numbers are from patent US20090170219.

# TESTED TARGET: IgG1 (human, UniProt P01857-1 P01857-1:1-330)
# Sequence (P01857 other isoform, or with tags, fused parts or gaps): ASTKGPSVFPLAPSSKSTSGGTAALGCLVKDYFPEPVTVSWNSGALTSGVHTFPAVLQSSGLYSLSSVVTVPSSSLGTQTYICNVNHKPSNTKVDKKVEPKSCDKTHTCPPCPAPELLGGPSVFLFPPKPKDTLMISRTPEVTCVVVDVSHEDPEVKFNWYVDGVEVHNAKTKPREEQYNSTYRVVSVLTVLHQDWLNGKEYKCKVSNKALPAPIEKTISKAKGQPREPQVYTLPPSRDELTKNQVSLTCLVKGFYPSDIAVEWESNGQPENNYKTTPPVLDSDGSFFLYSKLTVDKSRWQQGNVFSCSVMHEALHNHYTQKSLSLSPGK
# PROTOCOL DESCRIPTION: SPR; solution A
# PROTOCOL CONDITIONS: tags: Calbiochem; chain copies: 2; label: 3' A16 tail for immobilisation; GGUGCU bulge
What Kd was measured for each of the following?
Respond numerically; units are nM and should not be typed.

Return reported Kd; argument: SEQ ID NO:5 (ssRNA, 2'-F at all pyrimidines) RNA: GGGACACAAUGGACGACUACAAGGUGCUCCUUGAAAUGUUAAAUGAGGAACUUGUAACGGCCGACAUGAGAG
30

What would you report for SEQ ID NO:6 (ssRNA, 2'-F at all pyrimidines) RNA: GGGACACAAUGGACGGCUGGUAAGGUGCUCGGAAUGGAACUCGUCAUUCGGAACUUAACGGCCGACAUGAGAG ?
1

Let us now turn to SEQ ID NO:8 (ssRNA, 2'-F at all pyrimidines) RNA: GGGACACAAUGGACGAAAGGUGCUCCAACUAAAUUUGGAACUUUCCACCCAUAAUAACGGCCGACAUGAGAG
3

Continue with SEQ ID NO:7 (ssRNA, 2'-F at all pyrimidines) RNA: GGGACACAAUGGACGGGUGUUACAGGUGCUUGAUAAAGGUAGAAAAUCAAACUGUAACGGCCGACAUGAGAG
0.001

Next binder up: SEQ ID NO:4 (ssRNA, 2'-F at all pyrimidines) RNA: GGGACACAAUGGACGGCCAACGUUAACUGGAACUGUAAAUCAGGUGCUCGAGAUAACGGCCGACAUGAGAG
20

Another binder to check: SEQ ID NO:2 (ssRNA, 2'-F at all pyrimidines) RNA: GGGACACAAUGGACGUCAAAGAAGAGGUGCUCUGCGAGCCACGCGGAACUCUAUAACGGCCGACAUGAGAG
5

Further, for SEQ ID NO:3 (ssRNA, 2'-F at all pyrimidines) RNA: GGGACACAAUGGACGGCGUAAAAUGGAACCUGGGUUAGAAUAUCGGGGGUGCUCCGUAACGGCCGACAUGAGAG ?
10
